The measurements presented in this section are drawn from paper PMC9021956.

target: HLA-A0206 (Homo sapiens, UniProt P04439, D140Y/D185E/D98H/E176V/E277Q/F33Y/G131W/G231S/I119V/I121R/I166T/I218V/L300P/L318F/N151K/N90K/P208A/P217A/Q86G/Q94H/R138H/R169H/T345S); construct: expressed in transfected cells; host or cells: HMy2.CIR; test: cell-based; format: binding; settings: HLA-A0206 HMy2.CIR cells; competitor peptide 5μM; 24 hours; flow cytometry; read-out: 5μM Inhibition (%)
Residues, ends and D or L forms follow the SMILES beside them.

# molecule, inhibition at 5 µM, %
records = [
    ("CC(C)C[C@H](NC(=O)[C@H](CCC(=O)O)NC(=O)[C@H](CCCNC(=N)N)NC(=O)[C@H](CO)NC(=O)[C@H](C)N)C(=O)N[C@H](C(=O)N[C@H](C(=O)N[C@@H](CO)C(=O)N[C@@H](Cc1ccc(O)cc1)C(=O)O)C(C)C)C(C)C [Epitope P88] (H-ASRELVVSY-OH; N-terminus and C-terminus assumed)", 0),
    ("CC[C@H](C)[C@H](NC(=O)[C@H](CC(C)C)NC(=O)[C@H](CS)NC(=O)[C@H](CC(C)C)NC(=O)[C@H](Cc1c[nH]cn1)NC(=O)[C@H](Cc1ccccc1)NC(=O)[C@H](CC(C)C)NC(=O)[C@H](CCC(N)=O)NC(=O)[C@@H](N)CCSC)C(=O)O [Epitope P66] (H-MQLFHLCLI-OH; N-terminus and C-terminus assumed)", 27.3),
    ("CC(C)C[C@H](NC(=O)[C@@H]1CCCN1C(=O)[C@H](CC(C)C)NC(=O)[C@H](Cc1ccc(O)cc1)NC(=O)[C@H](CCCCN)NC(=O)[C@@H](NC(=O)[C@@H](NC(=O)[C@@H](N)CCCCN)C(C)C)[C@@H](C)O)C(=O)N[C@@H](CC(=O)O)C(=O)N[C@@H](CCCCN)C(=O)O [Epitope P15] (H-KVTKYLPLDK-OH; N-terminus and C-terminus assumed)", 10.6),
]

* * *

The reader will find reported inhibition at 5 µM values listed item by item below.
Target: HLA-A1102 (Homo sapiens, UniProt P04439, A114D/D185E/E176A/E43K/F33Y/L180Q/S129P/T187R)
Construct: expressed in transfected cells; host or cells: HMy2.CIR
Assay: Peptide competitive binding assay, transfected HMy2.CIR cells, reference ATFQFK(FITC)VER
Conditions: HLA-A1102 HMy2.CIR cells; competitor peptide 5μM; 24 hours; flow cytometry; read-out: 5μM Inhibition (%)
Procedure: HMy2.CIR cell line was purchased (Zhongqiao xinzhou Biotech, Shanghai) and maintained in complete IMDM medium with 10% FCS and 1% penicillin/streptomycin. […] The plate was centrifuged at 600 rpm for 5 min at room temperature (RT). […] Finally, cells were resuspended with 150 μL PBS and analyzed with flow cytometry. […] Binding affinity of unlabeled peptide with the indicated HLA-A molecule is assessed by IC50.
Residues, ends and D or L forms follow the SMILES beside them.

# compound, test target, units of measure, inhibition at 5 µM
measured = [
    ("CSCC[C@H](NC(=O)[C@@H](N)CCSC)C(=O)N[C@@H](Cc1c[nH]c2ccccc12)C(=O)N[C@@H](Cc1ccc(O)cc1)C(=O)N[C@@H](Cc1c[nH]c2ccccc12)C(=O)NCC(=O)N1CCC[C@H]1C(=O)N[C@@H](CO)C(=O)N[C@@H](CC(C)C)C(=O)O [Epitope P72]", "HLA-A1102 (Homo sapiens, UniProt P04439, A114D/D185E/E176A/E43K/F33Y/L180Q/S129P/T187R)", "%", 7.12),
    ("CC(C)C[C@H](NC(=O)[C@H](C)NC(=O)[C@H](CO)NC(=O)[C@H](C)NC(=O)[C@@H](NC(=O)[C@H](CC(=O)O)NC(=O)[C@H](CC(C)C)NC(=O)[C@@H](N)CC(C)C)[C@@H](C)O)C(=O)N[C@@H](Cc1ccc(O)cc1)C(=O)O [Epitope P111]", "HLA-A1102 (Homo sapiens, UniProt P04439, A114D/D185E/E176A/E43K/F33Y/L180Q/S129P/T187R)", "%", 0.27),
    ("CSCC[C@H](NC(=O)[C@@H](N)CO)C(=O)N[C@@H](Cc1ccc(O)cc1)C(=O)N1CCC[C@H]1C(=O)N[C@@H](CO)C(=O)N[C@@H](CS)C(=O)N[C@@H](CS)C(=O)N[C@@H](CS)C(=O)N[C@H](C(=O)N[C@@H](CCCCN)C(=O)O)[C@@H](C)O [Epitope P13] (H-SMYPSCCCTK-OH; N-terminus and C-terminus assumed)", "HLA-A1102 (Homo sapiens, UniProt P04439, A114D/D185E/E176A/E43K/F33Y/L180Q/S129P/T187R)", "%", 54.7),
    ("CC(C)C[C@H](NC(=O)[C@@H](NC(=O)[C@H](CCC(N)=O)NC(=O)[C@H](Cc1c[nH]cn1)NC(=O)[C@H](C)NC(=O)[C@H](CC(N)=O)NC(=O)[C@@H](NC(=O)[C@@H](N)[C@@H](C)O)C(C)C)C(C)C)C(=O)N1CCC[C@H]1C(=O)N[C@@H](CCCCN)C(=O)O [Epitope P48] (H-TVNAHQVLPK-OH; N-terminus and C-terminus assumed)", "HLA-A1102 (Homo sapiens, UniProt P04439, A114D/D185E/E176A/E43K/F33Y/L180Q/S129P/T187R)", "%", 25.5),
    ("CC(C)C[C@H](NC(=O)[C@H](Cc1ccccc1)NC(=O)[C@H](Cc1ccccc1)NC(=O)CNC(=O)[C@H](C)NC(=O)[C@@H](N)CCC(N)=O)C(=O)N[C@@H](CC(C)C)C(=O)N[C@H](C(=O)N[C@@H](CCCNC(=N)N)C(=O)O)[C@@H](C)O [Epitope P41] (H-QAGFFLLTR-OH; N-terminus and C-terminus assumed)", "HLA-A1102 (Homo sapiens, UniProt P04439, A114D/D185E/E176A/E43K/F33Y/L180Q/S129P/T187R)", "%", 6.72),
    ("CC[C@H](C)[C@H](NC(=O)[C@H](Cc1c[nH]c2ccccc12)NC(=O)[C@@H](NC(=O)CNC(=O)[C@H](Cc1ccccc1)NC(=O)[C@H](CO)NC(=O)[C@@H](NC(=O)[C@@H](N)CC(C)C)C(C)C)C(C)C)C(=O)N[C@@H](CCCNC(=N)N)C(=O)O [Epitope P4]", "HLA-A1102 (Homo sapiens, UniProt P04439, A114D/D185E/E176A/E43K/F33Y/L180Q/S129P/T187R)", "%", 0),
    ("CSCC[C@H](NC(=O)[C@@H](N)CCSC)C(=O)N[C@@H](Cc1c[nH]c2ccccc12)C(=O)N[C@@H](Cc1ccc(O)cc1)C(=O)N[C@@H](Cc1c[nH]c2ccccc12)C(=O)NCC(=O)N1CCC[C@H]1C(=O)N[C@@H](CO)C(=O)N[C@@H](CC(C)C)C(=O)N[C@@H](Cc1ccc(O)cc1)C(=O)O [Epitope P108]", "HLA-A1102 (Homo sapiens, UniProt P04439, A114D/D185E/E176A/E43K/F33Y/L180Q/S129P/T187R)", "%", 0),
]
